Test: TLR3 IRF3 reporter activation blockers – cell-based, poly I:C stimulus, luciferase, 10K MLSCN set, primary screen (AID 602277)
Settings: HEK293-TLR3 RL24 IRF3 luciferase reporter, at 10 µM, stronger effect = higher value
The source made the active and inactive calls.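 How the source made its calls: active means inhibition of the reporter signal at or above 50%; inactive means inhibition below 50%.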
readout: inhibition

Some solved entries appear below for comparison.
Please indicate inhibition recorded for Cc1cccc(NC2SC(=O)N(c3ccccc3)C2=O)c1 (stereo not drawn)
-12.1% (inactive)

Look up and state reported inhibition for CCOC(=O)N1CCN(c2cc(=O)n(-c3cccc(Br)c3)c(=O)[nH]2)CC1
15.4% (inactive)

Please indicate inhibition recorded for CCN(CC)CCOC(=O)c1ccc(NC(=O)COc2cc(=O)n(CC)c3ccccc23)cc1
-7.01% (inactive)

Fill in inhibition for record CCN1CCN(c2ncnc3c2oc2nc(C)c4c(c23)CC(C)(C)OC4)CC1
30.5% (inactive)

// Input: COc1ccc(CCNC(=O)CSCc2n[nH]c(=O)[nH]2)cc1OC . Output its inhibition only.
24.3% (inactive)

Answer with the recorded inhibition of CCOc1cc(C(=O)Nc2ccon2)cc(OCC)c1OCC only.
15.6% (inactive)

Further cases:
Input COC(=O)c1ccc2c(=O)n(CC3CCCO3)c(=S)[nH]c2c1 (stereo not drawn) , output reported inhibition.
12.3% (inactive)

Fill in reported inhibition for this entry: CCCCCn1c(CN2CCN(c3cccc(Cl)c3)CC2)nc2c1c(=O)n(C)c(=O)n2C
-10.4% (inactive)

Complete the entry with inhibition for CCOC(=O)N1CCC(N2CC34C=CC(O3)C(C(=O)O)C4C2=O)CC1 (stereo not drawn)
12.4% (inactive)

Output measured inhibition for this item: O=C(CCCCCN1C(=O)CCC1=O)NCc1ccccc1
24.6% (inactive)

For C=CCNC(=O)c1cccc(Br)c1 , write its inhibition.
7.57% (inactive)

Consider the compound CC1CCN(C(=O)CSc2nc3c(cnn3-c3ccccc3)c(=O)[nH]2)CC1 and give its recorded inhibition.
28.1% (inactive)

* * *

Assay: reduction of polyQ htt aggregates in cells – imaging, exon1htt(103Q)mCFP cells, high-content imaging, primary screen (AID 483);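 further: compound exposure lasted 3 days before fixation; percent of the per-plate median nuclei count of sample wells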
Conditions: exon1htt(103Q)mCFP cell line, aggregate imaging, at 2 µM; measured here: cell count, toxicity
The reader will find reported nuclei count values listed item by item below.
Report the value in % with no unit label.

Specify measured nuclei count for COc1cccc2sc(NC(=O)c3ccc(S(=O)(=O)N4CCOCC4)cc3)nc12 .
74.7

Please give the documented nuclei count of CN(CC(=O)N1CCCc2c1c(=O)oc1ccc(O)cc21)Cc1ccccc1
97.1

State, in one line, measured nuclei count of Cc1cc(C)c2c(n1)nn1c(N3CCN(c4cccc(Cl)c4)CC3)cc(C)nc21
97.9

Query nuclei count for COc1ccc(OCCOC(=O)c2cccs2)cc1
100

Report nuclei count, nothing else, for this molecule: COc1ccc(CNC(=O)c2nnn(Cc3ccc(OC)cc3)c2N)cc1
84.9

Others:
Let me know recorded nuclei count for CC1=Nn2c(nnc2-c2ccc(F)cc2)SC1 , thanks.
107

Complete the entry with nuclei count for Cc1ccc(-n2ncc3c(=O)[nH]c(SCC(=O)N4CCN(c5ccccc5)CC4)nc32)cc1
93.6

Entry COC(=O)C1=C(C)NC2=C(C(=O)CCC2)C1c1coc2ccccc2c1=O (stereo unspecified) needs its nuclei count filled in; supply it.
98.3

Indicate its recorded nuclei count; the molecule in question is COc1cccc(CN2CCN(C(=O)CC(C)C)CC2)c1
118

Respond only with nuclei count recorded for Cc1cc(C(=O)NCCCc2ccccc2)no1
105

Kindly indicate its recorded nuclei count. Item: Cc1cccc(Nc2nc3c(c(=O)n(C)c(=O)n3C)n2Cc2ccccc2)c1
94.7

Give a short answer stating reported nuclei count for Cc1cc(C)c2[nH]c(=O)c(C(c3nnnn3Cc3ccc4c(c3)OCO4)N3CCC(C)CC3)cc2c1 (stereo unspecified) .
98.1

* * *

In this section, each of the compounds is paired with its reported nuclei count.
Assay: endothelial E-selectin expression blockers – imaging, HUVEC, immunofluorescence, MLSMR starter and 10KST1 sets, primary screen (AID 487);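 further: 100% = median nuclei count of all wells on the same plate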
Conditions: HUVEC TNFalpha-induced E-selectin immunofluorescence imaging, at 2 µM; measured here: cell number, toxicity
// note: answer is a bare numeric in %

Use these answered entries as a reference point.
Dear colleague, please send me the reported nuclei count for O=C(O)C1C2C=CC(C3CC23)C1C(=O)NCCc1ccccc1 (stereo unspecified) when you can.
104

Give the reported nuclei count for this compound. CS(=O)(=O)N1CCCC(C(=O)NCCCN2CCC(Cc3ccccc3)CC2)C1 (stereo unspecified)
111

For the compound CCN1C(=O)CC(C(=O)Nc2ccc(F)cc2)SC1=Nc1ccc2c(c1)OCO2 (stereo unspecified) , give its measured nuclei count value.
124

State, in one line, measured nuclei count of CCCCC(O)(C(NC=O)C(=O)OC)C(F)(F)F (stereo unspecified)
113

Give a short answer stating reported nuclei count for COc1ccc(-c2noc(CCCC(=O)O)n2)cc1 .
107

Next:
Consider the compound C=CCN(C(=O)CNS(=O)(=O)c1ccccc1)C(C(=O)NCCOC)c1ccncc1 (stereo unspecified) . State its measured nuclei count.
80.2

Using known records, supply nuclei count for CCCn1c(SCC(=O)N2CCN(c3ccccc3)CC2)nc2ccccc2c1=O
124

Write down nuclei count measured for item CN(C)c1ccc2c(c1)OC(N)=C(C#N)C2c1cccc(F)c1 (stereo unspecified)
103

Note down nuclei count recorded for CCOc1ccc(-n2cc(C(=O)N3CCN(C)CC3)c3cc(OC)c(OC)cc3c2=O)cc1
121

Give recorded nuclei count. CCC(=O)OCCn1c(=O)c2cc3c(=O)n(CCOC(=O)CC)c(=O)c3cc2c1=O
125

Consider the compound O=C(CSc1nc(O)c(Cc2ccccc2)c(=O)[nH]1)Nc1ccccc1 and give its recorded nuclei count.
115

* * *

Assay: endothelial E-selectin expression blockers – imaging, HUVEC, immunofluorescence, MLSMR starter and 10KST1 sets, primary screen (AID 487);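 further: 100% = median nuclei count of all wells on the same plate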
Conditions: HUVEC TNFalpha-induced E-selectin immunofluorescence imaging, at 2 µM; measured here: cell number, toxicity
readout: nuclei count (%)
Please respond with the number in % and leave the unit unwritten.

For orientation, consider the following solved cases.
Recall and state the measured nuclei count for COc1ccc(-c2noc(CSc3nc(N)c(-c4ccccc4)c(=O)[nH]3)n2)cc1OC .
122

Give me measured nuclei count, please, for this compound: COC(=O)CSc1nnc(-c2ccncc2)o1
106

Provide measured nuclei count value, entry: CC(=O)c1sc(NC(=O)C2COc3ccccc3O2)nc1C (stereo not given)
104

State its nuclei count: Cc1nn(C)cc1NC(=O)CCSc1nc(-c2ccco2)cc(C(F)(F)F)n1
106

Further cases:
Recall and state the measured nuclei count for COC(=O)c1ccccc1NC(=O)N1CCCC1 .
115

Quote nuclei count reported for Cc1ccccc1C(=O)Nc1c(C(=O)N2CCCC2)cnn1-c1ccccc1 please.
84

In one line, give reported nuclei count of the entry Cc1ccc(-c2cc(C(F)F)nc(NCC3CCCO3)n2)cc1 (stereo not given) .
128

Query nuclei count for CCn1cc(C(=O)NCC2CCCO2)c(=O)c2cc(S(=O)(=O)N(C)C3CCCCC3)ccc21 (stereo not given)
97.9

// fetch nuclei count given entry Cc1c(-n2c(CN3C(=O)c4ccccc4C3=O)nc3ccccc3c2=O)c(=O)n(-c2ccccc2)n1C
95.8

Give recorded nuclei count. CCOC(=O)c1ccc(NS(=O)(=O)c2ccc3c(c2)CCCN3C(C)=O)cc1
125

* * *

Form field: nuclei count (one value per entry).
Assay: endothelial E-selectin expression blockers – imaging, HUVEC, immunofluorescence, MLSMR starter and 10KST1 sets, primary screen (AID 487);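 further: 100% = median nuclei count of all wells on the same plate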
Conditions: HUVEC TNFalpha-induced E-selectin immunofluorescence imaging, at 2 µM; measured here: cell number, toxicity
Answer with the figure and its unit, nothing else.

Specify measured nuclei count for COc1ccc(-c2nc(CS(=O)CC(=O)NCc3ccccn3)c(C)o2)cc1 (stereo unspecified) .
99.7%

// Input: COc1ccc(OC)c(Nc2nc(-c3sc(N)nc3C)cs2)c1 . Output its nuclei count only.
105%

Tell us which nuclei count value is on record for CC1CCN(CCn2c(=S)[nH]c3ncccc3c2=O)CC1
105%

Consider the molecule Cc1nc(C)c(C(=O)C2=C(O)C(=O)N(CCN3CCOCC3)C2c2ccco2)s1 (stereo unspecified) and give its recorded nuclei count.
104%

Further cases:
Report nuclei count for Cc1ccc(N=Cc2ccc(O)cc2O)cc1F
107%

Quickly give me recorded nuclei count for CN1CCN(C(=O)C2CCN(S(=O)(=O)c3ccc4c(c3)oc(=O)n4C)CC2)CC1
116%

Give me measured nuclei count, please, for this molecule: CCSc1nnc(NC(=O)c2csc(C)c2)s1
104%

Note nuclei count for the molecule shown: CCc1nn(CC(=O)N2CCN(Cc3ccc4c(c3)OCO4)CC2)c(=O)c2cc3occc3n12
105%

Tell me nuclei count reported for CCOc1ccc2nc(NC(=O)C3CCCN(S(=O)(=O)c4c(C)noc4C)C3)sc2c1 (stereo unspecified)
114%

Please supply the value of reported nuclei count for the item Cc1ccc(NC(=O)C2CC=CCC2C(=O)N2CCCCC2)cc1 (stereo unspecified)
94.3%

Please list nuclei count recorded for the molecule COc1ccccc1CC(=O)NCc1ccc2c(c1)OCO2
114%
